testTarget: KRas G12V (Homo sapiens, UniProt P01116, G12V)
Sequence (P01116 1-169 isoform P01116-2 G12V): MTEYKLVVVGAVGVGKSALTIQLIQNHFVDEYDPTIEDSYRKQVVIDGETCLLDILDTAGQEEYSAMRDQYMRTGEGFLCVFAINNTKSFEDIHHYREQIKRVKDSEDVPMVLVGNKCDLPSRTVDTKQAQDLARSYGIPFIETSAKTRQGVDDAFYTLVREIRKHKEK
assayExplanation: biochemical
pIC50: −log10 of the molar value.
valueKind: pIC50

[1] CCc1cccc2cccc(-c3ncc4c(N5CCCC(C)(O)C5)nc(OCC56CCCN5CCC6)nc4c3F)c12 (stereo not drawn)
[2] CCc1c(F)ccc2cc(O)cc(-c3ncc4c(N5CCCC(C(N)=O)C5)nc(OC[C@@]56CCCN5C[C@H](F)C6)nc4c3F)c12 (stereo partly drawn)
stdin: Hi, I'm comparing two records. Which one has the lower pIC50, 1 or 2 ? Response format: the label of the selected entry.
stdout: 1

====

testTarget: KRas G12R (Homo sapiens, UniProt P01116, G12R);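 further: TR-FRET displacement assay of compound binding to KRas, read after one hour at room temperature, potency from a four-parameter fit of percent-of-control values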
Sequence (P01116 1-169 isoform P01116-2 G12R): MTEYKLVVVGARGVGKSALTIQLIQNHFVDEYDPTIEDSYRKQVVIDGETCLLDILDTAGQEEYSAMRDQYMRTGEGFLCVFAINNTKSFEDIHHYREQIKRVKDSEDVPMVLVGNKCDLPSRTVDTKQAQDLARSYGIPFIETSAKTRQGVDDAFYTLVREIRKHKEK
assayExplanation: biochemical
pIC50: −log10 of the molar value.
valueKind: pIC50

The cases that follow already have their pIC50 on record.
1. Oc1cc(-c2ncc3c(N4CC5CC(O)CC4C5)nc(OC[C@@]45CCCN4C[C@H](F)C5)nc3c2F)c2c(Cl)c(F)ccc2c1 (stereo partly shown)	8.30
2. CCc1c(F)ccc2cc(O)cc(-c3ncc4c(Nc5ccon5)nc(OC[C@@]56CCCN5C[C@H](F)C6)nc4c3F)c12	8.00
3. NC(=O)N1CC(Nc2nc(OCC34CCCN3CCC4)nc3c(F)c(-c4cccc5cccc(Cl)c45)ncc23)C1	5.34
4. CC1(O)CCCCN(c2nc(OCC34CCCN3CCC4)nc3c(F)c(-c4cccc5cccc(F)c45)ncc23)C1 (stereo not shown)	4.35
5. CCc1c(F)ccc2cc(O)cc(-c3ncc4c(N5CCCC(c6ncn[nH]6)C5)nc(OC[C@@]56CCCN5C[C@H](F)C6)nc4c3F)c12 (stereo partly shown)	8.52

[A] NC(=O)C1COCCN(c2nc(OCC34CCCN3CCC4)nc3c(F)c(-c4cccc5cccc(F)c45)ncc23)C1 (stereo not shown)
[B] Fc1c(-c2cccc3cccc(F)c23)ncc2c(NCc3ccc4nonc4c3)nc(OCC34CCCN3CCC4)nc12
[C] NS(=O)(=O)CC1CCCN(c2nc(OCC34CCCN3CCC4)nc3c(F)c(-c4cccc5cccc(Cl)c45)ncc23)C1 (stereo not shown)
stdin: Hello, I need these entries ordered by pIC50, highest reading first. Thanks! List labels; respect the requested ordering.
stdout: C, B, A

====

Tested on: pERK in HCT116 cells
assayExplanation: Inhibition of KRas phosphorylation of ERK (Cisbio HTRF pERK assay)
conditionDetails: Homo sapiens, HCT-116, read-out: Inhibition (HTRF IC50) of KRas-mediated Phosphorylation of ERK, HCT116
valueKind: IC50 (µM)

1) CCc1c(F)ccc2cc(O)cc(-c3ncc4c(N5CCCC(N6CCCS6(=O)=O)C5)nc(OC[C@@]56CCCN5C[C@H](F)C6)nc4c3F)c12 (stereo partly drawn)	0.245

[A] CCc1c(F)ccc2cc(O)cc(-c3ncc4c(N5CCC[C@]6(C5)C[C@](C)(O)C6)nc(OCC56CCCN5CCC6)nc4c3F)c12
[B] CCc1c(F)ccc2cc(O)cc(-c3ncc4c(N5CC(c6ccncc6)C5)nc(OC[C@@]56CCCN5C[C@H](F)C6)nc4c3F)c12
stdin: Hi, I'm comparing two records. Which one has the lower IC50, A or B ? Response format: the label of the selected entry.
stdout: B

====

testTarget: KRas G12V (Homo sapiens, UniProt P01116, G12V);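 further: KRas binding measured by TR-FRET displacement at room temperature, IC50 fitted from percent of control values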
assayExplanation: biochemical
valueKind: IC50 (nM)

The cases that follow already have their IC50 on record.
1. Cc1cccc2cccc(-c3ncc4c(N5CCCC6(CNC(=O)N6)C5)nc(OCC56CCCN5CCC6)nc4c3F)c12 (centres unmarked)	191
2. Fc1c(-c2cccc3cccc(F)c23)ncc2c(NCc3nnc4ncccn34)nc(OCC34CCCN3CCC4)nc12	6640
3. OC1CCCCN(c2nc(OCC34CCCN3CCC4)nc3c(F)c(-c4cccc5cccc(F)c45)ncc23)C1 (centres unmarked)	2990

[P] O=C1NC(=O)C2(CCCN(c3nc(OCC45CCCN4CCC5)nc4c(F)c(-c5cccc6cccc(CO)c56)ncc34)C2)N1 (centres unmarked)
[Q] O=C1CC2(CCCN(c3nc(OCC45CCCN4CCC5)nc4c(F)c(-c5cccc6cccc(Cl)c56)ncc34)C2)N1 (centres unmarked)
[R] Fc1c(-c2cccc3cccc(F)c23)ncc2c(N3CC(n4ccnc4)C3)nc(OCC34CCCN3CCC4)nc12
[S] O=S1(=O)CCCN1C1CCCN(c2nc(OCC34CCCN3CCC4)nc3c(F)c(-c4cccc5cccc(F)c45)ncc23)C1 (centres unmarked)
stdin: Hello, I need these entries ordered by IC50, highest reading first. Thanks! List labels; respect the requested ordering.
stdout: S, R, P, Q
